- test_target: HDAC11 (Homo sapiens, UniProt Q96DB2)
- Sequence (Q96DB2 whole entry): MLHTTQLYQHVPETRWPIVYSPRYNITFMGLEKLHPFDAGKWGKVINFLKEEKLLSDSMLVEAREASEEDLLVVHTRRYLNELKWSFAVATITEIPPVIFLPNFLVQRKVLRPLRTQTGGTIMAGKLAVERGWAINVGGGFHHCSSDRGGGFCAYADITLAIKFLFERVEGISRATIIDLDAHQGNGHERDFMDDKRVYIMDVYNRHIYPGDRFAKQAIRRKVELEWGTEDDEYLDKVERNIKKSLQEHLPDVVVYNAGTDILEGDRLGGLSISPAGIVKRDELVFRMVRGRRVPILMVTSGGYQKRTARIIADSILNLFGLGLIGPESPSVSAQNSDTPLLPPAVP
- procedure_text: HDAC inhibition assay (fluorogenic peptide, Reaction Biology)
- condition_context: tested once, ten-dose starting at 30 µM
pIC50: −log10 of the molar value.
quantity_kind: pIC50

                                   compound  numeric_result
0  CC(C)NC(=O)[C@H]1CC[C@@H](n2/c(=N/C(=O)c3ccccc3)[nH]c3cc(NC(=O)CCCCCCC(=O)NO)ccc32)CC1            5.76
1  CC(C)NC(=O)C1CCC(n2c(=NC(=O)c3ccccc3)[nH]c3cc(C=CC(=O)NO)ccc32)CC1 (stereo not drawn)            4.78

A: CCCC(=O)/N=c1\[nH]c2cc(/C=C/C(=O)NO)ccc2n1CCCC(=O)NC(C)C
B: CC(C)NC(=O)CCCn1/c(=N/C(=O)c2ccccc2)[nH]c2cc(/C=C/C(=O)NO)ccc21
// pick larger pIC50 from pair: A vs B Write down the label attached to your selection.
A
(A: 5.85, B: 5.03)

# credit: paper PMC10930102
